Reference source: PubChem BioAssay AID504332

target: Histone-lysine N-methyltransferase EHMT2 (Homo sapiens); assay: qHTS Assay for Inhibitors of Histone Lysine Methyltransferase G9a; conditions: G9a H3K9 monomethylation, AlphaScreen, 2 h; series mostly up to 59 µM; note: nearly all actives have a fitted effect of over 75% in size
The campaign covered roughly 350,000 compounds. About 31,000 (8.9%) were called active. Another 15% or so got no clear call; they are omitted. Calls come from the whole dose curve; as a rule, active = well fitted inhibition curve with a large enough effect; inconclusive = small, poorly fitted or top-dose-only effect; inactive = no such curve, though single readings can be large or run the other way. The list comes from a sample in which actives are over-represented; it also holds close analogues and randomly drawn compounds.
Outcome field: choose from class 1 = active, class 0 = inactive

Solved cases (4 shown):
| compound | qualitative_label |
| --- | --- |
| O=C(CSc1nccn1-c1ccc(F)cc1)Nc1cccc2ccccc12 | class 1 |
| Cc1cccn2c(=O)c(C=O)c(Nc3ccc(S(N)(=O)=O)cc3)nc12 | class 0 |
| Fc1ccc(C(Nc2ccc(Cl)c(C(F)(F)F)c2)c2nnc(-c3ccccc3)o2)cc1 (stereo unspecified) | class 0 |
| COc1ccccc1CNC(=O)c1ccc(-n2c(C)cc3c2CCCC3)cc1 | class 0 |

Exam item: Look up the recorded call for "Cc1ccc2nc(SCC(=O)Nc3cccc4ccccc34)nc(=O)n2c1" in this test.
Marked response: class 0

Exam item: # repeat for "COc1cc(OC)c(NC(=O)c2c3c(nn2C)-c2ccccc2SC3)cc1Cl"
Marked response: class 0

Exam item: # repeat for "CCOc1ccc(-n2nc3ccc(NC(=O)c4ccc(OC)c(Cl)c4)cc3n2)cc1"
Marked response: class 0

Exam item: # repeat for "O=C(/C=C/Nc1ccc(S(=O)(=O)Nc2cnc3ccccc3n2)cc1)c1cccnc1"
Marked response: class 1

Exam item: # repeat for "O=C(CSc1nccn1Cc1ccc(F)cc1)NCc1ccccc1"
Marked response: class 0

Exam item: # repeat for "COc1ccccc1-n1ccnc1SCC(=O)NC(C)(C)C"
Marked response: class 0

Exam item: # repeat for "Cc1cc(NS(=O)(=O)c2ccc(NC(=O)c3cccnc3)cc2)nc(C)n1"
Marked response: class 0

---

target: Histone-lysine N-methyltransferase EHMT2 (Homo sapiens) (UniProt Q96KQ7); assay: qHTS Assay for Inhibitors of Histone Lysine Methyltransferase G9a; conditions: G9a H3K9 monomethylation, AlphaScreen, 2 h; series mostly up to 59 µM; note: nearly all actives have a fitted effect of over 75% in size
Sequence (Q96KQ7 913-1193 limits assumed): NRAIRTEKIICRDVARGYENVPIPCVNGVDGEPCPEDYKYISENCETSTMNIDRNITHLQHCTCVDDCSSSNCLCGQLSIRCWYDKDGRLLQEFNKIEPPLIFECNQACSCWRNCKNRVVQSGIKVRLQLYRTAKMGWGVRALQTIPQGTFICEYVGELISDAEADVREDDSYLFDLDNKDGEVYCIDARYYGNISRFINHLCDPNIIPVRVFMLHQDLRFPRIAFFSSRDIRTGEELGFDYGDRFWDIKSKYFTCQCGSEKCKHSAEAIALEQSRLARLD
In all, about 350,000 compounds went through this assay and about 31,000 (8.9%) were called active. Roughly 15% stayed inconclusive and do not appear here. Calls follow the shape of the dose curve; as a rule, active = well fitted inhibition curve with a large enough effect; inconclusive = small, poorly fitted or top-dose-only effect; inactive = no such curve, though single readings can be large or run the other way. Many of the other results were omitted from the sample, so actives are more common in it than they were.
Outcome field: choose from Yes for active, No for inactive

Solved cases (10 shown):
| compound | experimental_system | qualitative_label |
| --- | --- | --- |
| CC(C)(C)C(=O)N1CCC[C@@]1(CO)C(=O)O | Histone-lysine N-methyltransferase EHMT2 (Homo sapiens) (UniProt Q96KQ7) | Yes |
| CCOC(=O)N1CCC(NC(=O)c2cnn(-c3cccc(C)c3)c2C2CCN(C(=O)OC(C)(C)C)CC2)CC1 | Histone-lysine N-methyltransferase EHMT2 (Homo sapiens) (UniProt Q96KQ7) | No |
| CCN1CCN(c2nc(Nc3cc(OC)ccc3OC)nc(Nc3cc(OC)ccc3OC)n2)CC1 | Histone-lysine N-methyltransferase EHMT2 (Homo sapiens) (UniProt Q96KQ7) | No |
| Cn1c(SCC(=O)N2CCOCC2)nnc1-c1ccc(NC(=O)c2ccccc2F)cc1 | Histone-lysine N-methyltransferase EHMT2 (Homo sapiens) (UniProt Q96KQ7) | Yes |
| N#CCC(=O)NC(=O)NCC1CC1 | Histone-lysine N-methyltransferase EHMT2 (Homo sapiens) (UniProt Q96KQ7) | Yes |
| COc1ccc(CCNC(=O)c2ccc(CSCc3ccc(C)cc3)o2)cc1OC | Histone-lysine N-methyltransferase EHMT2 (Homo sapiens) (UniProt Q96KQ7) | No |
| CCOc1ccc(CCNC(=O)COC(=O)C2CCN(c3ccc(C(F)(F)F)cn3)CC2)cc1OCC | Histone-lysine N-methyltransferase EHMT2 (Homo sapiens) (UniProt Q96KQ7) | No |
| Cn1c(SCC(=O)N2CCOCC2)nnc1-c1ccc2ncccc2c1 | Histone-lysine N-methyltransferase EHMT2 (Homo sapiens) (UniProt Q96KQ7) | No |
| CCC(C)(C)NC(=O)C(c1ccc(OC)cc1)N(C(=O)CCC(=O)Nc1cc(C)on1)c1ccc(OC)cc1OC (stereo unspecified) | Histone-lysine N-methyltransferase EHMT2 (Homo sapiens) (UniProt Q96KQ7) | No |
| COc1ccc(CCNC(=O)CCNS(=O)(=O)c2cc(Br)cnc2N)cc1OC | Histone-lysine N-methyltransferase EHMT2 (Homo sapiens) (UniProt Q96KQ7) | No |

Exam item: Look up the recorded call for Cc1ccc(S(=O)(=O)NCCC(=O)NNC(=O)C2COc3ccccc3O2)cc1 (stereo unspecified) in this test.
Marked response: No

Exam item: # repeat for "CCc1ccc(NC(=O)N2CCc3ccccc3C2)cc1"
Marked response: No

Exam item: # repeat for "O=C(Nc1nc2ccc(F)cc2s1)c1nc(SCc2ccccc2F)ncc1Cl"
Marked response: No

Exam item: # repeat for "Cn1c(SCC(=O)N2CCCC2)nnc1-c1ccc2c(c1)OCO2"
Marked response: No

Exam item: # repeat for COc1ccccc1C1C(C(=O)N2CCCCC2)=C(C)Nc2nc3ccccc3n21 (stereo unspecified)
Marked response: No
